The measured values listed here are drawn from PubChem BioAssay AID1851.

- SYSTEM: Cytochrome P450 3A4 (Homo sapiens)
- ASSAY_NOTES: Cytochrome panel assay with activity outcomes
- DETAILS: recombinant CYP, pro-luciferin dealkylation, luminescence, p450-cyp3a4; series mostly up to 57.1 µM
Screen size: about 16,000 compounds; about 5,100 (32%) were called active. About 25% were inconclusive and are not listed. The call rests on the fitted dose curve; in most records, active means well fitted curve in the direction sought with a large enough effect; inconclusive means small, poorly fitted or top-dose-only effect, or effect the other way; inactive means no such curve, though single readings can be large or run the other way. The list shows a part of the results.
Log the outcome using a class from TRUE for active, FALSE for inactive

Solved cases (6 shown):
C[N+](C)(C)CCCCCCCCCC[N+](C)(C)C = FALSE
CCCNC(=O)OC[C@H]1O[C@@H](CCO/N=C2/[C@H]3O[C@@H]3[C@@H](O)[C@H]3[C@H]2CCn2c(=O)n(-c4ccccc4)c(=O)n23)C=C[C@@H]1Oc1ccc(OC)cc1 = TRUE
CN(Cc1ccco1)c1cc(-c2ccoc2)ncn1 = FALSE
CC(C)(C)NC(=O)Cn1nnc(-c2ccccc2NC(=O)c2cnccn2)n1 = TRUE
O=C(NN=C1C2CC3CC(C2)CC1C3)c1ccncc1 = TRUE
Nc1nonc1-c1noc(CCCN2C(=O)c3ccccc3C2=O)n1 = TRUE

Dear colleague, could you share the recorded outcome for COc1ccc(O[C@H]2C=C[C@@H](c3ccccc3)O[C@H]2CO/N=C2/[C@H]3O[C@@H]3[C@@H](O)[C@H]3[C@H]2CCn2c(=O)n(-c4ccccc4)c(=O)n23)cc1 when you have a moment? TRUE

In this assay, the call recorded for COc1ccc(-c2ccc(=O)n(CC(=O)Nc3nnc(C(C)C)s3)n2)cc1OC was what? FALSE

Name the outcome recorded for COc1cc([C@H](O)C(=O)O)ccc1O in the assay. FALSE

Hello, I am checking results. What call was entered for CCn1c(-c2ccoc2C)n[nH]c1=S ? FALSE

Test call for this compound, please: CN(C)C(=O)CN(c1ccc2c(c1)OCO2)S(C)(=O)=O TRUE
